# subjectOfTest: UniProtKB P43116
# Sequence (P43116 whole entry): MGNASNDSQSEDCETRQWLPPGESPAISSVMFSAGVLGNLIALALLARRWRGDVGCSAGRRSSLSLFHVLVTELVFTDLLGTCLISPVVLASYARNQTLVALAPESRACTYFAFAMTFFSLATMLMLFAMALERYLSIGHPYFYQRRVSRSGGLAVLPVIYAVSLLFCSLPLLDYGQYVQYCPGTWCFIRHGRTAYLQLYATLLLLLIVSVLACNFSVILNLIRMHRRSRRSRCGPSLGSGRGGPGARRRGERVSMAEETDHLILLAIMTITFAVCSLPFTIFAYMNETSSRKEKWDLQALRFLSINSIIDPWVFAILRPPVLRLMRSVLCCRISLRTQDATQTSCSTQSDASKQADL
# measurementNotes: hEP2 cAMP assay (SF295 glioblastoma cells, HTRF cAMP)
# cond: antagonistic activity
assayReadout: pIC50
Scale for pIC50: -log10 of concentration given in mol/L; no unit attached.

Recorded pIC50, per entry:
compound	pIC50
CCOc1cc(-c2cc(NCCc3ccc4cc[nH]c4c3)ncn2)ccc1CC(=O)O [Ex 271]	6.20
CCOc1cc(-c2cc(NCCc3ccc4ccn(CC)c4c3)ncn2)sc1C(=O)O [Ex 242]	6.35
CSc1cc(-c2cc(NCCc3ccc4c(c3)CCS4)ncn2)ccc1C(=O)O [Ex 138]	7.21
COc1cc2ccccc2c(C)c1CCNc1cc(-c2ccc(C(=O)O)c(OC3CCC3)c2)ncn1 [Ex 79]	7.08
CCOc1cc(-c2cc(NCCc3cc4ccccc4cc3OC)ncn2)ccc1C(=O)O [Ex 162]	6.43
COc1c(CCNc2cc(-c3ccc(C(=O)O)c(SC)c3)ncn2)cc2ccccc2c1Cl [Ex 186]	6.09

compound CCOc1cc(-c2cc(NCCc3ccc4sncc4c3)ncn2)sc1C(=O)O [Ex 135] , pIC50 observed: 6.77

compound CCOc1cc(-c2cc(NCCc3cc4ccccc4cc3Cl)ncn2)sc1C(=O)O [Ex 62] , pIC50 observed: 6.52

compound CCOc1cc(-c2cc(NCCc3ccc4ccccc4c3C)ncn2)sc1C(=O)NS(N)(=O)=O [Example 354] , pIC50 observed: 7.57

compound N#Cc1cc2c(cc1CCNc1cc(-c3ccc(C(=O)O)c(OC4CCC4)c3)ncn1)OCCO2 [Ex 113] , pIC50 observed: 6.60

compound CCOc1cc(-c2cc(NCCc3c(F)cc4ncccc4c3F)ncn2)sc1-c1noc(=O)[nH]1 [Example 346] , pIC50 observed: 6.55

compound CCOc1cc(-c2cc(NCCc3cc4c(cc3SC)OCCO4)ncn2)sc1C(=O)O [Ex 78] , pIC50 observed: 6.66

compound CCOc1cc(-c2cc(NCCc3cc4ccoc4cc3OC)ncn2)ccc1C(=O)O [Ex 151] , pIC50 observed: 7.46

compound c1nc(NCCc2ccc3cc[nH]c3c2)cc(-c2ccc3[nH]ccc3c2)n1 [Ex 226] , pIC50 observed: 6.60

----------
// pIC50 lookup, one value per entry
# subjectOfTest: PTGER4 (EP4) (Homo sapiens (Human), UniProt P35408)
# Sequence (P35408 whole entry): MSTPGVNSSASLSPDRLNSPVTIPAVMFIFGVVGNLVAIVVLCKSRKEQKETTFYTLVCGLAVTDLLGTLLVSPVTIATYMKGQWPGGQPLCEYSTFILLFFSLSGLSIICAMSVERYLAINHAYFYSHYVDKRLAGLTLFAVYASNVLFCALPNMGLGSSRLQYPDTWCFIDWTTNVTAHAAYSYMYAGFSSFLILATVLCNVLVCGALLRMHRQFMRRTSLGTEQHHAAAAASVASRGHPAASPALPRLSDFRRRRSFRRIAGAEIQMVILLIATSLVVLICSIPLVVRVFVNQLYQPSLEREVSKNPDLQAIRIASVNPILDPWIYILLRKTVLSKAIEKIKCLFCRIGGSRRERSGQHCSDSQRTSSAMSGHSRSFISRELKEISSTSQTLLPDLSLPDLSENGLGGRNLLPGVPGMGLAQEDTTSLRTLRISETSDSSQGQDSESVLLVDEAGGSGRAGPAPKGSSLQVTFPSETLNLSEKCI
Scale for pIC50: -log10 of concentration given in mol/L; no unit attached.

Recorded pIC50, per entry:
compound	pIC50
CCOc1cc(-c2cc(NCCc3cc(C)c4c(c3)OCCO4)ncn2)sc1C(=O)O	7.60
CCOc1cc(-c2cc(NCCc3ccc4scc(C#N)c4c3)ncn2)ccc1CC(=O)O	6.84
CCOc1cc(-c2cc(NCCc3cc4ccn(C)c4cc3F)ncn2)sc1C(=O)O	8.30
CCOc1cc(-c2cc(NCCc3ccc4sccc4c3)nc(C)n2)ccc1CC(=O)O	6.06
CCOc1cc2sccc2cc1CCNc1cc(-c2ccc(C(=O)O)c(OCC)c2)ncn1	7.18
O=C(O)c1ccc(-c2cc(NCCc3ccc4scnc4c3)ncn2)cc1OC1CCC1	6.09

Case CSc1cc(-c2cc(NCCc3c(F)cc4ccccc4c3F)ncn2)ccc1C(=O)O , PTGER4 (EP4) (Homo sapiens (Human), UniProt P35408), pIC50 recorded as 6.95

Case CCOc1cc(-c2cc(NCCc3ccc4ncccc4c3F)ncn2)sc1C(=O)O , PTGER4 (EP4) (Homo sapiens (Human), UniProt P35408), pIC50 recorded as 7.23

Case O=C(O)c1ccc(-c2cc(NCCc3ccc4c(c3)CCS4)ncn2)cc1OC1CCC1 , PTGER4 (EP4) (Homo sapiens (Human), UniProt P35408), pIC50 recorded as 6.91

Case CCOc1cc(-c2cc(NCCc3cc4ccsc4cc3OC)ncn2)ccc1CC(=O)O , PTGER4 (EP4) (Homo sapiens (Human), UniProt P35408), pIC50 recorded as 7.13

Case C#Cc1c(CCNc2cc(-c3cc(OCC)c(C(=O)O)s3)ncn2)ccc2ccccc12 , PTGER4 (EP4) (Homo sapiens (Human), UniProt P35408), pIC50 recorded as 8.10

Case CCOc1cc(-c2cc(NCCc3ccc4c(c3)CCO4)ncn2)sc1C(=O)O , PTGER4 (EP4) (Homo sapiens (Human), UniProt P35408), pIC50 recorded as 6.19

Case CCOc1cc(-c2cc(NCCc3cc4cccnc4c(F)c3Cl)ncn2)sc1C(=O)O , PTGER4 (EP4) (Homo sapiens (Human), UniProt P35408), pIC50 recorded as 6.88

Case CCOc1cc(-c2cc(NCCc3cc4c(cc3OC)NCCC4)ncn2)sc1C(=O)O , PTGER4 (EP4) (Homo sapiens (Human), UniProt P35408), pIC50 recorded as 6.89

Case CCOc1cc(-c2cc(NCCc3ccc4c(c3)CCS4)ncn2)ccc1C(=O)O , PTGER4 (EP4) (Homo sapiens (Human), UniProt P35408), pIC50 recorded as 6.10

Case CCOc1cc(-c2cc(NCCc3ccc4ncoc4c3)ncn2)sc1C(=O)O , PTGER4 (EP4) (Homo sapiens (Human), UniProt P35408), pIC50 recorded as 6.44

Case CCOc1cc(-c2cc(NCCc3ccc4sccc4c3)ncn2)ccc1OC(C)C(=O)O (stereo not shown) , PTGER4 (EP4) (Homo sapiens (Human), UniProt P35408), pIC50 recorded as 7.11

Case CCOc1cc(-c2cc(NCCc3cc4ccccc4cc3OC(C)C)ncn2)sc1C(=O)O , PTGER4 (EP4) (Homo sapiens (Human), UniProt P35408), pIC50 recorded as 8.22

Case CSc1cc(-c2cc(NCCc3cc4c(cc3C#N)OCCO4)ncn2)ccc1C(=O)O , PTGER4 (EP4) (Homo sapiens (Human), UniProt P35408), pIC50 recorded as 6.83

Case CCOc1cc(-c2cc(NCCc3cc4ccccc4c(Cl)c3OC)ncn2)sc1C(=O)O , PTGER4 (EP4) (Homo sapiens (Human), UniProt P35408), pIC50 recorded as 7.80

Case CSc1cc(-c2cc(NCCc3ccc4c(c3)CCS4)ncn2)ccc1C(=O)O , PTGER4 (EP4) (Homo sapiens (Human), UniProt P35408), pIC50 recorded as 6.45

----------
# subjectOfTest: UniProt P43116
# measurementNotes: hEP2 cAMP assay (SF295 glioblastoma cells, HTRF cAMP)
# cond: antagonistic activity
pIC50: −log10 of the molar value.
Classify by measured pIC50: Y if it is equal to or exceeds 7, N if it is smaller.

molecule	answerLabel
CCOc1cc(-c2cc(NCCc3cc(F)c4cc(C)sc4c3OC)ncn2)sc1C(=O)O	N

Exercise: Determine whether measured pIC50 meets or exceeds 7 for CCOc1cc2ccccc2cc1CCNc1cc(-c2cc(OCC)c(C(=O)O)s2)ncn1
Solution: Y

Exercise: Determine whether measured pIC50 meets or exceeds 7 for CCOc1cc(-c2cc(NCCc3ccc4cc[nH]c4c3)ncn2)sc1-c1noc(=O)[nH]1
Solution: Y

Exercise: Determine whether measured pIC50 meets or exceeds 7 for CCOc1cc(-c2cc(NCCc3c(F)c(F)c4cc(C)oc4c3OC)ncn2)sc1C(=O)O
Solution: N

Exercise: Determine whether measured pIC50 meets or exceeds 7 for CCOc1cc(-c2cc(NCCc3c(OCC)cc4ccccc4c3C)ncn2)ccc1C(=O)O
Solution: Y

Exercise: Determine whether measured pIC50 meets or exceeds 7 for CCOc1cc(-c2cc(NCCc3cc4c(cc3OC)OCCO4)ncn2)sc1C(=O)O
Solution: Y

----------
// IC50 lookup, one value per entry
# subjectOfTest: EP4 (Homo sapiens (Human))
# Sequence (P35408 whole entry): as above
# measurementNotes: hEP4 cAMP assay (BT549 breast cancer cells, HTRF cAMP)
# Type: cell-based
# cond: antagonistic activity, PGE2 6 nM
# output: bare number, implied unit nM

molecule CCOc1cc(-c2cc(NCCc3ccc4sccc4c3)ncn2)sc1C(=O)O , IC50 observed: 3

molecule COc1cc(-c2cc(NCCc3ccc4sccc4c3)ncn2)cc(OC)c1C(=O)O , IC50 observed: 766

molecule CCOc1cc(-c2cc(NCCc3ccc4ccccc4c3C)ncn2)ccc1OCC(=O)O , IC50 observed: 165

molecule CCSc1cc(-c2cc(NCCc3c(F)cc4ncccc4c3F)ncn2)ccc1C(=O)O , IC50 observed: 146

molecule CCOc1cc(-c2cc(NCCc3ccc4c(c3)CCO4)ncn2)sc1C(=O)O , IC50 observed: 85

----------
# subjectOfTest: EP4 (Homo sapiens (Human))
# measurementNotes: hEP4 cAMP assay (BT549 breast cancer cells, HTRF cAMP)
# Type: cell-based
# cond: antagonistic activity, PGE2 6 nM
Classification scheme (IC50): c1: < 60 nM; c2: ≥ 60 nM and < 400 nM; c3: ≥ 400 nM

Answered cases to consult:
smilesString	answerLabel
COc1cc2sccc2cc1CCNc1cc(-c2ccc(C(=O)O)c(OC3CCC3)c2)ncn1	c1
CCOc1cc(-c2cc(NCCc3cc4c(cc3OC(F)F)OCO4)ncn2)ccc1C(=O)O	c3
O=C(O)c1ccc(-c2cc(NCCc3ccc4cc[nH]c4c3)ncn2)cc1OC1CCC1	c3

Exercise: Dear colleague, I would appreciate it if you could identify the bin for CCOc1cc(-c2cc(NCCc3ccc4ccccc4c3F)ncn2)sc1C(=O)O and reply at your convenience.
Solution: c1

Exercise: Dear colleague, I would appreciate it if you could identify the bin for CSc1cc(-c2cc(NCCc3ccc4scnc4c3)ncn2)ccc1C(=O)O and reply at your convenience.
Solution: c2
